Test system: A. fumigatus
Experiment: Neutral, additive or synergistic effect of combinations of novamycin plus other antifungal agents, Example 3
Format: cell-based
Details: combination of the antifungal with Novamycin

{"columns": ["Smiles Representation", "Effect"],
 "data": [
  ["C[C@@H]1[C@H](O)[C@@H](C)/C=C/C=C/C=C/C=C/C=C/C=C/C=C/[C@H](O[C@@H]2O[C@H](C)[C@@H](O)[C@H](N)[C@@H]2O)C[C@@H]2O[C@](O)(C[C@@H](O)C[C@@H](O)[C@H](O)CC[C@@H](O)C[C@@H](O)CC(=O)O[C@H]1C)C[C@H](O)[C@H]2C(=O)O", "Additive"],
  ["CC[C@H](C)C[C@H](C)CCCCCCCCC(=O)N[C@H]1C[C@@H](O)[C@@H](NCCN)NC(=O)[C@@H]2[C@@H](O)CCN2C(=O)[C@H]([C@H](O)CCN)NC(=O)[C@H]([C@H](O)[C@@H](O)c2ccc(O)cc2)NC(=O)[C@@H]2C[C@@H](O)CN2C(=O)[C@H]([C@@H](C)O)NC1=O", "Additive"],
  ["CC[C@@H]([C@H](C)O)n1ncn(-c2ccc(N3CCN(c4ccc(OC[C@@H]5CO[C@@](Cn6cncn6)(c6ccc(F)cc6F)C5)cc4)CC3)cc2)c1=O", "Additive"]
]}
